ASSAY_EXPLANATION: VPA content in blood (serum) after topical application, HPLC
Format: in vivo
RECORDED_CONDITIONS: human, day 85, daily topical up to approx. 2.000 mg of 3% VPA medication (approx. 60 mg VPA), read-out: serum level of VPA
RESULT_TYPE: concentration at 85 day

Prompt: Which concentration at 85 day is listed for CCCC(CCC)C(=O)O [VPA, 2-propyl-pentanoic acid] ?
Completion: ≤ 1.59 µg/mL

---

ASSAY_EXPLANATION: VPA content in blood (serum) after topical application, HPLC
Assay type: in vivo
RECORDED_CONDITIONS: human, day 56, daily topical up to approx. 2.000 mg of 3% VPA medication (approx. 60 mg VPA), read-out: serum level of VPA
RESULT_TYPE: concentration at 56 day

Prompt: Request the reported concentration at 56 day associated with CCCC(CCC)C(=O)O [VPA, 2-propyl-pentanoic acid]
Completion: ≤ 2440 ng/mL
